System: biotinyl-Leu-oxazolone
Assay: self-aminoacylation, catalytic enhancement (BLO) (fold over background); higher = more active; k-Seq, kA / k0A0; sequences stand for … in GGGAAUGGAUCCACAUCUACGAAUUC…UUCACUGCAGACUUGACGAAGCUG
This sample holds only a part of the variants without activity.
Give Criterion met when the value for self-aminoacylation is at least 3. Give Criterion not met when it is less.

>>> class_name("AUUCACCAAGGACAUCGGGUG [Fam2.2 aminoacylation ribozyme variant]")
"Criterion met"
>>> class_name("AUUCACCGAGGUCAUCGGGGG [Fam2.2 aminoacylation ribozyme variant]")
"Criterion not met"
>>> class_name("CAGUUUGCUAAUAGUUGCAAG [Fam3.1 aminoacylation ribozyme variant]")
"Criterion not met"

Inquiry: Please tell me: is the sequence UUUACCCUGGUCAUCUAGUGA [Fam2.1 aminoacylation ribozyme variant] at or over 3 in terms of self-aminoacylation?
Reply text: Criterion met

Inquiry: Form field: self-aminoacylation at least 3? Entry: CCACACUUCAAUCAAUCGAUC [Fam1B.1 aminoacylation ribozyme variant]
Reply text: Criterion not met

Inquiry: Given AAGUUUCCUAAUUGUCGCAAG [Fam3.1 aminoacylation ribozyme variant] , state whether its self-aminoacylation is at least 3.
Reply text: Criterion not met

Inquiry: Given the entry AUCCACCUAGGUCAUCGGGUA [Fam2.2 aminoacylation ribozyme variant] , answer whether its self-aminoacylation meets or surpasses 3.
Reply text: Criterion met

====

Test system: biotinyl-Phe-oxazolone
Assay: self-aminoacylation, catalytic enhancement (BFO) (fold over background); higher = more active; k-Seq, kA / k0A0; sequences stand for … in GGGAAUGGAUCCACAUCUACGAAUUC…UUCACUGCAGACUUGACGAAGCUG
This sample holds only a part of the variants without activity.
Overview of recorded self-aminoacylation for various sequences
// keep it numeric: no unit symbol after the value

>>> test_value("AUUCGGCUAGGUCAUCGGGUG [Fam2.2 aminoacylation ribozyme variant]")
24.4
>>> test_value("CUGUUUCAAACAAUCGGUCUG [Fam1A.1 aminoacylation ribozyme variant]")
96.2
>>> test_value("AUGACCCUGGUCAACGAGUGA [Fam2.1 aminoacylation ribozyme variant]")
32.5
>>> test_value("AUUACCCUGGUCAUCGAGUGG [Fam2.1 aminoacylation ribozyme variant]")
361

Field: next sequence
Inquiry: I would be grateful if you could share the reported self-aminoacylation for AGUUACCUAGGUCAUCGGGUG [Fam2.2 aminoacylation ribozyme variant] .
Reply text: 40.1

====

Tested on: biotinyl-Ile-oxazolone
Test: self-aminoacylation, catalytic enhancement (BIO) (fold over background); higher = more active; k-Seq, kA / k0A0; sequences stand for … in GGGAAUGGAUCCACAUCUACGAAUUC…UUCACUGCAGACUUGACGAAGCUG
This sample holds only a part of the variants without activity.
Hi, to clarify the labels: Condition met covers self-aminoacylation from 2 upward, Condition not met covers anything below 2.

>>> class_name("AAGUUUGCUAACAGUCGCGAG [Fam3.1 aminoacylation ribozyme variant]")
"Condition not met"
>>> class_name("AUUCACCUAGGUAAUUGGGUG [Fam2.2 aminoacylation ribozyme variant]")
"Condition met"
>>> class_name("AUUCACCUAGGUCAUAGGGUG [Fam2.2 aminoacylation ribozyme variant]")
"Condition not met"
>>> class_name("AUUCACCUAGUUCAUUGGGUG [Fam2.2 aminoacylation ribozyme variant]")
"Condition not met"
>>> class_name("AUAACCCUGGUCAUCGAGGGA [Fam2.1 aminoacylation ribozyme variant]")
"Condition not met"

Inquiry: self-aminoacylation >= 2 for GCACACUUCAGGCAAUCGGUC [Fam1B.1 aminoacylation ribozyme variant] ?
Reply text: Condition met

Inquiry: Item CCACACUUCAAGGAAUAGGUC [Fam1B.1 aminoacylation ribozyme variant] with self-aminoacylation of 2 or above?
Reply text: Condition not met

Inquiry: Evaluate AUAACCCUGGCCAUCGAGUGA [Fam2.1 aminoacylation ribozyme variant] : self-aminoacylation at minimum 2?
Reply text: Condition met

Inquiry: Does self-aminoacylation meet or surpass 2 for CUACUUCAAACAUUCGGUUUG [Fam1A.1 aminoacylation ribozyme variant] ?
Reply text: Condition not met

====

System: biotinyl-Trp-oxazolone
Test: self-aminoacylation, catalytic enhancement (BWO) (fold over background); higher = more active; k-Seq, kA / k0A0; sequences stand for … in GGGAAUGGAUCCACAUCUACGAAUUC…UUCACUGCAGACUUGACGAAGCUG
Fewer inactive variants are shown than the library holds.
Threshold check on self-aminoacylation: at or above 1 gives Met, strictly below gives Not met.

See these solved cases before continuing.
>>> class_name("AAGUUUGCAAAUAGCCGCAAG [Fam3.1 aminoacylation ribozyme variant]")
"Met"
>>> class_name("AAGAUUGCUAAUAGUCCCAAG [Fam3.1 aminoacylation ribozyme variant]")
"Not met"
>>> class_name("CCACGUUUCAAGCAAUCGGUC [Fam1B.1 aminoacylation ribozyme variant]")
"Met"
>>> class_name("AAGAUUGCUAAUAGUCGCAAA [Fam3.1 aminoacylation ribozyme variant]")
"Met"
>>> class_name("AUUACCCUUAUCAUCGAGUGA [Fam2.1 aminoacylation ribozyme variant]")
"Met"

Inquiry: Please indicate if the recorded self-aminoacylation for CUUCUUCAACCAAUCGGUCUG [Fam1A.1 aminoacylation ribozyme variant] meets or exceeds 1.
Reply text: Met

Inquiry: Does AUUCAUCUCGGUCAUCGGGUG [Fam2.2 aminoacylation ribozyme variant] have a reported self-aminoacylation of at least 1?
Reply text: Met

====

Test system: biotinyl-Trp-oxazolone
Assay: self-aminoacylation, catalytic enhancement (BWO) (fold over background); higher = more active; k-Seq, kA / k0A0; sequences stand for … in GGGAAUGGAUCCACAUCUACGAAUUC…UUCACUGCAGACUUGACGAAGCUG
Variants at the floor of the assay were thinned out.
Classification field: enter condition met for self-aminoacylation values not below 2, condition not met for values below it.

Solved cases below.
>>> class_name("CCACACUUCUAGCAAUCGGGC [Fam1B.1 aminoacylation ribozyme variant]")
"condition not met"
>>> class_name("AUGCUCCUAGGUCAUCGGGUG [Fam2.2 aminoacylation ribozyme variant]")
"condition met"
>>> class_name("AAGUAUGCUAAUAGUCGCAAU [Fam3.1 aminoacylation ribozyme variant]")
"condition not met"

Inquiry: Determine whether this sequence has self-aminoacylation no lower than 2: AUUCGCUUAGGUCAUCGGGUG [Fam2.2 aminoacylation ribozyme variant]
Reply text: condition met

Inquiry: Given the entry AUUCACCUAGGUCAUCAGGGG [Fam2.2 aminoacylation ribozyme variant] , answer whether its self-aminoacylation meets or surpasses 2.
Reply text: condition not met

Inquiry: Assess whether reported self-aminoacylation for AAGUAUGAUAAUAGUCGCAAG [Fam3.1 aminoacylation ribozyme variant] sits at 2 or higher.
Reply text: condition not met

Inquiry: Is it the case that CUACUUCAAACAAUCGGAAUG [Fam1A.1 aminoacylation ribozyme variant] has self-aminoacylation reaching or exceeding 2?
Reply text: condition met

Inquiry: For this sequence, is measured self-aminoacylation 2 or higher? AACUUUGCUAAUAGUCGCAAG [Fam3.1 aminoacylation ribozyme variant]
Reply text: condition met

Inquiry: Could you tell me if the measured self-aminoacylation of CCUCACUUCAAGCAAUCGGUC [Fam1B.1 aminoacylation ribozyme variant] reaches 2 or more?
Reply text: condition met

====

Tested on: biotinyl-Val-oxazolone
Assay: self-aminoacylation, catalytic enhancement (BVO) (fold over background); higher = more active; k-Seq, kA / k0A0; sequences stand for … in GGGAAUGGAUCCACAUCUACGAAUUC…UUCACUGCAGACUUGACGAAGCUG
Fewer inactive variants are shown than the library holds.
Classification field: yes = self-aminoacylation at or over 2; no = self-aminoacylation under 2.

>>> class_name("CUACUUCAAACAAUCGGUGGG [Fam1A.1 aminoacylation ribozyme variant]")
"no"
>>> class_name("AUUCACCUAGGUCUUCGGGUC [Fam2.2 aminoacylation ribozyme variant]")
"no"
>>> class_name("AUGCUCCUAGGUCAUCGGGUG [Fam2.2 aminoacylation ribozyme variant]")
"yes"

Inquiry: Entry AUAUUUGCUAAUAGUCGCAAG [Fam3.1 aminoacylation ribozyme variant] : is its self-aminoacylation no less than 2?
Reply text: no

====

System: biotinyl-Trp-oxazolone
Experiment: self-aminoacylation, catalytic enhancement (BWO) (fold over background); higher = more active; k-Seq, kA / k0A0; sequences stand for … in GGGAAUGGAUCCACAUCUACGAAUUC…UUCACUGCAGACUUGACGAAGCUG
Fewer inactive variants are shown than the library holds.
Tick fulfilled if self-aminoacylation is 1 or greater. Tick not fulfilled if self-aminoacylation is less than 1.

>>> class_name("AUUCACAUAGGUCAGCGGGUG [Fam2.2 aminoacylation ribozyme variant]")
"fulfilled"
>>> class_name("CUACUUCAAACAAAAGGUCUG [Fam1A.1 aminoacylation ribozyme variant]")
"not fulfilled"
>>> class_name("AUUACCCUAGUCAUCGAGUGU [Fam2.1 aminoacylation ribozyme variant]")
"fulfilled"
>>> class_name("AUUACCCUGGUCCUGGAGUGA [Fam2.1 aminoacylation ribozyme variant]")
"fulfilled"
>>> class_name("AAGUUUGAUAAUAGUCCCAAG [Fam3.1 aminoacylation ribozyme variant]")
"not fulfilled"

Inquiry: // inclusive: self-aminoacylation at least 1? input: CAACUUCAAACCAUCGGUCUG [Fam1A.1 aminoacylation ribozyme variant]
Reply text: fulfilled

Inquiry: Tell me whether self-aminoacylation is at least 1 here: AAUCACCUAGGUCAUCGGUUG [Fam2.2 aminoacylation ribozyme variant]
Reply text: fulfilled

Values from the supplement of paper PMC9233669
